Provenance of the data: patent US20080269343A1

- test.method.notes: Single and multiple dose 300 mg pharmacokinetic study in Japanese and Caucasian healthy male subjects (Example 5)
- Assay type: in vivo, human
- measurement.parameters: male, human, plasma, oral, 300 mg, arithmetic mean (SD); single dose 300 mg, Caucasian subjects n=19; read-out: AUC0-72
- Description: An open label, non-randomized, single center, parallel group single and multiple dose study in healthy male subjects was carried out. Two parallel groups, one Japanese (n=19), the other Caucasian (n=19), age (±5 years) and weight matched (±25%), were enrolled in this study. Each subject participated in a 21-day screening period, a baseline period (Day −1), a 10 day treatment period (Days 1-10) and a study completion evaluation 4-7 days after the last PK sample. […]
value.type: AUC(0-t) (ng·h/mL)
Numbers only; they are read as ng·h/mL.

I have this compound here, COCCCOc1cc(C[C@@H](C[C@H](N)[C@@H](O)C[C@H](C(=O)NCC(C)(C)C(N)=O)C(C)C)C(C)C)ccc1OC , and I need its recorded AUC(0-t). 1120

* * *

- test.method.notes: Single-dose four-period crossover pharmacokinetic study of 75, 150, 300 and 600 mg aliskiren (dosage form 3) in healthy volunteers (Example 3)
- Format: in vivo
- measurement.parameters: human, plasma; arithmetic mean (SD); single oral dose 600 mg, healthy subjects n = 30
value.type: Cmax (ng/mL)
Give just the number in ng/mL; leave the unit off.

Give the measured Cmax of COCCCOc1cc(C[C@@H](C[C@H](N)[C@@H](O)C[C@H](C(=O)NCC(C)(C)C(N)=O)C(C)C)C(C)C)ccc1OC . 420

* * *

- test.method.notes: Steady-state pharmacokinetics of aliskiren 300 mg alone, digoxin interaction study, Day 7 (Example 8)
- Format: in vivo, human
- measurement.parameters: human, in vivo, oral, 300 mg, arithmetic mean, 300 mg daily, Day 7, healthy volunteers N 21
value.type: Cmax
State the value, then name its unit.

Would you mind telling me what Cmax value was observed for COCCCOc1cc(C[C@@H](C[C@H](N)[C@@H](O)C[C@H](C(=O)NCC(C)(C)C(N)=O)C(C)C)C(C)C)ccc1OC ? 261 ng/mL

* * *

- test.method.notes: Single-dose 300 mg pharmacokinetic study in healthy and type 2 diabetic subjects (Example 4)
- Type: in vivo, human
- measurement.parameters: human, plasma, po, 300 mg, arithmetic mean; single oral dose 300 mg, healthy subjects n = 30; read-out: AUC0-96
value.type: AUC(0-t) (ng·h/mL)
A number alone suffices; assume ng·h/mL.

For the compound COCCCOc1cc(C[C@@H](C[C@H](N)[C@@H](O)C[C@H](C(=O)NCC(C)(C)C(N)=O)C(C)C)C(C)C)ccc1OC , what AUC(0-t) is on record? 1640

* * *

- test.method.notes: Single-dose 300 mg pharmacokinetic study in healthy and type 2 diabetic subjects (Example 4)
- Format: in vivo, human
- measurement.parameters: human, plasma, po, 300 mg, Median; single oral dose 300 mg, healthy subjects n = 30; read-out: Cmax
- Procedure: An open label, non-randomized, single center, and parallel group single dose study in healthy and type 2 diabetic subjects was carried out. Two parallel groups, one group of 30 healthy, and one group of 30 type 2 diabetic patients, (age, weight and race matched) were enrolled, and all subjects completed the study in each group. […]
value.type: Cmax (µg/mL)
Report the value in µg/mL with no unit label.

Quick check: Cmax of COCCCOc1cc(C[C@@H](C[C@H](N)[C@@H](O)C[C@H](C(=O)NCC(C)(C)C(N)=O)C(C)C)C(C)C)ccc1OC [aliskiren] ? 0.278
